B1: library; a variant is named by its letters at N, in order (parent)
chain: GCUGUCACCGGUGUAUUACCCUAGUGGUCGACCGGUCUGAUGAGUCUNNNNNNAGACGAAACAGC

variants of: B1; experiment: normalized RNA/DNA level without ligand (relative to sTRSVctl = 100) (log10 (% of sTRSVctl)); ligand: hypoxanthine (xanthine aptamer); higher = less ribozyme self-cleavage, higher mRNA level; settings: HEK293T, reporter: mCherry (pCS4076), ligand present: no
This section presents variants with their documented normalized RNA/DNA level without ligand (log10) values.
assay.endpoint: normalized RNA/DNA level without ligand (log10)

mutation.label	measured
CAACAA	1.7
CCAGGA	1.83
UUUCGU	1.85
GAUGUA	1.79
AAUCUA	1.8
GACCGA	1.85
GGCGGG	1.83
UACUUU	1.92
UUUAGU	1.83
GGAUUG	1.42
UACAGC	1.9
